- experiment notes: Plasma pharmacokinetics after a single 1 mg/kg dose
- Assay type: in vivo, C57BL/6J mice
- run conditions: C57BL/6J, mouse, iv, 1 mg/kg
attribute measured: k el (s⁻¹)
Give the quantity in s⁻¹, number only.

Endpoint output: k el of CC(=O)N[C@@H](Cc1ccccc1)C(=O)N[C@H]1CCCNC(=O)[C@H](CCCNC(=N)N)NC(=O)[C@H](Cc2c[nH]c3ccccc23)NC(=O)[C@@H](CC2CCCCC2)NC(=O)[C@@H]2CCCN2C1=O [PMX53, Ac-Phe-[Orn-Pro-dCha-Trp-Arg]] . Value?
0.00193

* * *

- experiment notes: Spinal cord pharmacokinetics after a single 1 mg/kg dose
- Type: in vivo, C57BL/6J mice
- run conditions: C57BL/6J, mouse, spinal cord, iv, 1 mg/kg
attribute measured: k el (s⁻¹)
Give the quantity in s⁻¹, number only.

Endpoint output: k el of CC(=O)N[C@@H](Cc1ccccc1)C(=O)N[C@H]1CCCNC(=O)[C@H](CCCNC(=N)N)NC(=O)[C@H](Cc2c[nH]c3ccccc23)NC(=O)[C@@H](CC2CCCCC2)NC(=O)[C@@H]2CCCN2C1=O [PMX53, Ac-Phe-[Orn-Pro-dCha-Trp-Arg]] . Value?
0.000111

* * *

- experiment notes: Spinal cord pharmacokinetics after a single 1 mg/kg dose
- Type: in vivo, C57BL/6J mice
- run conditions: C57BL/6J, mouse, spinal cord, sc, 1 mg/kg
attribute measured: Tmax
Returns: string containing the numeric result and its unit.

Endpoint output: Tmax of CC(=O)N[C@@H](Cc1ccccc1)C(=O)N[C@H]1CCCNC(=O)[C@H](CCCNC(=N)N)NC(=O)[C@H](Cc2c[nH]c3ccccc23)NC(=O)[C@@H](CC2CCCCC2)NC(=O)[C@@H]2CCCN2C1=O [PMX53, Ac-Phe-[Orn-Pro-dCha-Trp-Arg]] . Value?
23.1 min

* * *

- experiment notes: Spinal cord pharmacokinetics after a single 1 mg/kg dose
- Format: in vivo, C57BL/6J mice
- run conditions: C57BL/6J, mouse, spinal cord, sc, 1 mg/kg
attribute measured: Cmax (ng/g)
Give the quantity in ng/g, number only.

Endpoint output: Cmax of CC(=O)N[C@@H](Cc1ccccc1)C(=O)N[C@H]1CCCNC(=O)[C@H](CCCNC(=N)N)NC(=O)[C@H](Cc2c[nH]c3ccccc23)NC(=O)[C@@H](CC2CCCCC2)NC(=O)[C@@H]2CCCN2C1=O [PMX53, Ac-Phe-[Orn-Pro-dCha-Trp-Arg]] . Value?
96.6

* * *

- experiment notes: Brain pharmacokinetics after a single 1 mg/kg dose
- Type: in vivo, C57BL/6J mice
- run conditions: C57BL/6J, mouse, brain, ip, 1 mg/kg
attribute measured: Cmax

Endpoint output: Cmax of CC(=O)N[C@@H](Cc1ccccc1)C(=O)N[C@H]1CCCNC(=O)[C@H](CCCNC(=N)N)NC(=O)[C@H](Cc2c[nH]c3ccccc23)NC(=O)[C@@H](CC2CCCCC2)NC(=O)[C@@H]2CCCN2C1=O [PMX53, Ac-Phe-[Orn-Pro-dCha-Trp-Arg]] . Value?
48.1 ng/g

* * *

- experiment notes: Plasma pharmacokinetics after a single 1 mg/kg dose
- Format: in vivo, C57BL/6J mice
- run conditions: C57BL/6J, mouse, po, 1 mg/kg
attribute measured: MRT last (min)
Give the quantity in min, number only.

Endpoint output: MRT last of CC(=O)N[C@@H](Cc1ccccc1)C(=O)N[C@H]1CCCNC(=O)[C@H](CCCNC(=N)N)NC(=O)[C@H](Cc2c[nH]c3ccccc23)NC(=O)[C@@H](CC2CCCCC2)NC(=O)[C@@H]2CCCN2C1=O [PMX53, Ac-Phe-[Orn-Pro-dCha-Trp-Arg]] . Value?
32.6
